# target_under_test: PI3Kα (Homo sapiens (Human))
# method: Inhibition of PI3Kα efficacy assay (ADP-Glo kinase assay)
# Type: biochemical
# test_conditions: Table 4; read-out: PI3Kα inhibitory activity (IC50)
pIC50: −log10 of the molar value.
// pIC50 lookup, one value per entry
measured_parameter: pIC50

molecule | target_under_test | measured_parameter | val
COc1ncc(-c2ccc3ncnc(N4CC5CCC4CN5C(=O)/C=C/C(C)=O)c3c2)cc1NS(=O)(=O)c1ccc(F)cc1F (centres unmarked) | PI3Kα (Homo sapiens (Human)) | pIC50 | 8.52
COc1ncc(-c2ccc3ncnc(C4CCN(C(=O)/C=C/C(C)=O)CC4)c3c2)cc1NS(=O)(=O)c1c(F)cccc1Cl | PI3Kα (Homo sapiens (Human)) | pIC50 | 8.41
COc1ncc(-c2ccc3ncnc(N4CC5CN(C(=O)/C=C/C(C)=O)CC5C4)c3c2)cc1NS(=O)(=O)c1ccc(F)cc1F (centres unmarked) | PI3Kα (Homo sapiens (Human)) | pIC50 | 8.89
COc1ncc(-c2ccc3ncnc(N4CCN(C(=O)/C=C/C(C)=O)CC4)c3c2)cc1NS(=O)(=O)c1ccncc1C | PI3Kα (Homo sapiens (Human)) | pIC50 | 8.39
CC(=O)/C=C/C(=O)N1CCN(c2ncnc3ccc(-c4cnc(CO)c(NS(=O)(=O)c5ccc(F)cc5F)c4)cc23)CC1 | PI3Kα (Homo sapiens (Human)) | pIC50 | 8.28
COc1ncc(-c2ccc3ncnc(C4CCN(C(=O)/C=C/C(C)=O)CC4)c3n2)cc1NS(=O)(=O)c1ccccc1F | PI3Kα (Homo sapiens (Human)) | pIC50 | 8.70
COc1ncc(-c2ccc3ncnc(C4=CCN(C(=O)/C=C/C(C)=O)CC4)c3n2)cc1NS(=O)(=O)c1c(F)cccc1F | PI3Kα (Homo sapiens (Human)) | pIC50 | 8.19
COc1ncc(-c2ccc3ncnc(N4CCN(C(=O)/C=C/C(C)=O)CC4)c3n2)cc1NS(=O)(=O)c1c(Cl)cncc1Cl | PI3Kα (Homo sapiens (Human)) | pIC50 | 8.96
CC(=O)/C=C/C(=O)N1CCN(c2ncnc3ccc(-c4cnc(N(C)C)c(NS(=O)(=O)c5ccc(F)cc5F)c4)cc23)CC1 | PI3Kα (Homo sapiens (Human)) | pIC50 | 8.62
COc1ncc(-c2ccc3ncnc(N4CCN(C(=O)/C=C/C(C)=O)CC4)c3n2)cc1NS(=O)(=O)c1ccc(C(F)(F)F)cc1F | PI3Kα (Homo sapiens (Human)) | pIC50 | 8.66
COc1ncc(-c2ccc3ncnc(N4CCN(C(=O)/C=C/C(C)=O)CC4)c3n2)cc1NS(=O)(=O)c1c(C)cccc1F | PI3Kα (Homo sapiens (Human)) | pIC50 | 8.52
COc1ncc(-c2cc(F)c3ncnc(N4CCN(C(=O)/C=C/C(C)=O)CC4)c3c2)cc1NS(=O)(=O)c1ccc(F)cc1F | PI3Kα (Homo sapiens (Human)) | pIC50 | 8.77
COc1ncc(-c2ccc3ncnc(N4CC5CCC(C4)N5C(=O)/C=C/C(C)=O)c3c2)cc1NS(=O)(=O)c1sc(C)nc1C | PI3Kα (Homo sapiens (Human)) | pIC50 | 8.59
COc1ncc(-c2ccc3ncnc(C4=CCN(C(=O)/C=C/C(C)=O)CC4)c3n2)cc1NS(=O)(=O)c1c(F)cccc1Cl | PI3Kα (Homo sapiens (Human)) | pIC50 | 9.57
COc1ncc(-c2ccc3ncnc(C4CCN(C(=O)/C=C/C(C)=O)CC4)c3c2)cc1NS(=O)(=O)c1ccccc1F | PI3Kα (Homo sapiens (Human)) | pIC50 | 8.48
COc1ncc(-c2ccc3ncnc(N4[C@H](C)CN(C(=O)/C=C/C(C)=O)C[C@@H]4C)c3c2)cc1NS(=O)(=O)c1ccccc1F | PI3Kα (Homo sapiens (Human)) | pIC50 | 8.55
COc1ncc(-c2ccc3ncnc(N4CCN(C(=O)/C=C/C(C)=O)C[C@@H]4C)c3c2)cc1NS(=O)(=O)c1c(F)cncc1F | PI3Kα (Homo sapiens (Human)) | pIC50 | 8.55
COc1ncc(-c2ccc3ncnc(C4=CCN(C(=O)/C=C/C(C)=O)CC4)c3n2)cc1NS(=O)(=O)c1ccc(F)cc1F | PI3Kα (Homo sapiens (Human)) | pIC50 | 8.30
COc1ncc(-c2cc3c(N4CCN(C(=O)/C=C/C(C)=O)CC4)ncnc3cn2)cc1NS(=O)(=O)c1ccc(F)cc1F | PI3Kα (Homo sapiens (Human)) | pIC50 | 7.83
COc1ncc(-c2ccc3ncnc(N4C5CCC4CN(C(=O)/C=C/C(C)=O)C5)c3c2)cc1NS(=O)(=O)c1ccc(F)cc1F | PI3Kα (Homo sapiens (Human)) | pIC50 | 8.49
C=C(C(C)=O)C(=O)N1CCN(c2ncnc3ccc(-c4cnc(OC)c(NS(=O)(=O)c5ccc(F)cc5F)c4)cc23)CC1 | PI3Kα (Homo sapiens (Human)) | pIC50 | 8.21
COc1ncc(-c2ccc3ncnc(N4CCN(C(=O)/C=C/C(C)=O)CC4)c3c2)cc1NS(C)(=O)=O | PI3Kα (Homo sapiens (Human)) | pIC50 | 8.15
COc1ncc(-c2ccc3ncnc(N4CCN(C(=O)/C=C/C(C)=O)CC4)c3c2)cc1S(=O)(=O)Nc1ccc(F)cc1F | PI3Kα (Homo sapiens (Human)) | pIC50 | 7.79
COC/C=C/C(=O)N1CCN(c2ncnc3ccc(-c4cnc(OC)c(NS(=O)(=O)c5c(F)cccc5F)c4)nc23)CC1 | PI3Kα (Homo sapiens (Human)) | pIC50 | 8.62
COc1ncc(-c2ccc3ncnc(C4=CCN(C(=O)/C=C/C(C)=O)CC4)c3n2)cc1NS(=O)(=O)c1c(F)cc(F)cc1F | PI3Kα (Homo sapiens (Human)) | pIC50 | 8.77
COc1ncc(-c2ccc3ncnc(N4CCN(C(=O)/C=C/C(C)=O)C[C@@H]4C)c3c2)cc1NS(=O)(=O)c1ccccc1F | PI3Kα (Homo sapiens (Human)) | pIC50 | 9.55

----------
# target_under_test: KRAS^G12C-SOS1 (Homo sapiens (Human), UniProt P01116, G12C)
# Sequence (P01116-2 other isoform, or with tags, fused parts or gaps G12C): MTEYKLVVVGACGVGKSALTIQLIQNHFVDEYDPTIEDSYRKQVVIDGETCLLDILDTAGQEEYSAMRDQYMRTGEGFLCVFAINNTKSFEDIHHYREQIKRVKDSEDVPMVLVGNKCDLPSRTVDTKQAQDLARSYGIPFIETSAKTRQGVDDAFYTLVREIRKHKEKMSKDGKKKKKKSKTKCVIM
# method: HTRF KRAS G12C/SOS1 binding assay
# test_conditions: Table 5
pIC50: −log10 of the molar value.
// pIC50 lookup, one value per entry
measured_parameter: pIC50

compound | val
COc1ncc(-c2ccc3ncnc(N4CC5CCC(C4)N5C(=O)/C=C/C(C)=O)c3c2)cc1NS(=O)(=O)c1c(F)cc(F)cc1F [Example 155] | 6.34
COc1ncc(-c2ccc3ncnc(N4CCC5(CC4)CN(C(=O)/C=C/C(C)=O)C5)c3c2)cc1NS(=O)(=O)c1ccc(F)cc1 [Example 161] | 6.55
COc1ncc(-c2ccc3ncnc(C4CCN(C(=O)/C=C/C(C)=O)CC4)c3c2)cc1NS(=O)(=O)c1ccccc1F [Example 204] | 6.51

----------
// IC50 lookup, one value per entry
# target_under_test: PI3Kα (Homo sapiens (Human), UniProt P42336)
# Sequence (P42336 whole entry): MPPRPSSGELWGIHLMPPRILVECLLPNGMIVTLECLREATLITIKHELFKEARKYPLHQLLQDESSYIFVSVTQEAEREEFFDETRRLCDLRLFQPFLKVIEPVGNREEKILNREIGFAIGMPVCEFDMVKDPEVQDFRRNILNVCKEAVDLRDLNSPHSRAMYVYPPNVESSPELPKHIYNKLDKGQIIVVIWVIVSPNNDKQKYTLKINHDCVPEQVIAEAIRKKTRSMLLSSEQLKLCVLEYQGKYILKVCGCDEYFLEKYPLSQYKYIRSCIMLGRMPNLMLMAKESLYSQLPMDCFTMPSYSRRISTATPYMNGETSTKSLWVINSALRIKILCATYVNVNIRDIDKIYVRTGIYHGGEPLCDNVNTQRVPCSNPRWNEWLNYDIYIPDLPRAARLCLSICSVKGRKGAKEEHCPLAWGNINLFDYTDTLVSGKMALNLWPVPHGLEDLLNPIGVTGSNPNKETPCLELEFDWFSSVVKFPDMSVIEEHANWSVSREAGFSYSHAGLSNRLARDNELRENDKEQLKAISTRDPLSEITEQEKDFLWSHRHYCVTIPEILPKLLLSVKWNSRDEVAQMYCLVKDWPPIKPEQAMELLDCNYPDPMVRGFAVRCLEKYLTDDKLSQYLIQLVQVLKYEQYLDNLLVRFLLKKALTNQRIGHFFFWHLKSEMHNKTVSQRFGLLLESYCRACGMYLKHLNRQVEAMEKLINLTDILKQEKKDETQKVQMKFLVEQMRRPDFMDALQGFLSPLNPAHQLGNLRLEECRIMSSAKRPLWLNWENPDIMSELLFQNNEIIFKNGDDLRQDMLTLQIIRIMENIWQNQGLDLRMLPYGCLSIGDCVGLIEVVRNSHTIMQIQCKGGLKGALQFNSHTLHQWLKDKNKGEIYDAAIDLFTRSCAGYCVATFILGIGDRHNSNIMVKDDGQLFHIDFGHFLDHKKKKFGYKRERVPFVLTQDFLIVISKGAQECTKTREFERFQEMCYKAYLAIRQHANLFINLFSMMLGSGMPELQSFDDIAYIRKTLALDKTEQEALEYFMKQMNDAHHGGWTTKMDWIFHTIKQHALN
# Sequence (P27986 whole entry partner): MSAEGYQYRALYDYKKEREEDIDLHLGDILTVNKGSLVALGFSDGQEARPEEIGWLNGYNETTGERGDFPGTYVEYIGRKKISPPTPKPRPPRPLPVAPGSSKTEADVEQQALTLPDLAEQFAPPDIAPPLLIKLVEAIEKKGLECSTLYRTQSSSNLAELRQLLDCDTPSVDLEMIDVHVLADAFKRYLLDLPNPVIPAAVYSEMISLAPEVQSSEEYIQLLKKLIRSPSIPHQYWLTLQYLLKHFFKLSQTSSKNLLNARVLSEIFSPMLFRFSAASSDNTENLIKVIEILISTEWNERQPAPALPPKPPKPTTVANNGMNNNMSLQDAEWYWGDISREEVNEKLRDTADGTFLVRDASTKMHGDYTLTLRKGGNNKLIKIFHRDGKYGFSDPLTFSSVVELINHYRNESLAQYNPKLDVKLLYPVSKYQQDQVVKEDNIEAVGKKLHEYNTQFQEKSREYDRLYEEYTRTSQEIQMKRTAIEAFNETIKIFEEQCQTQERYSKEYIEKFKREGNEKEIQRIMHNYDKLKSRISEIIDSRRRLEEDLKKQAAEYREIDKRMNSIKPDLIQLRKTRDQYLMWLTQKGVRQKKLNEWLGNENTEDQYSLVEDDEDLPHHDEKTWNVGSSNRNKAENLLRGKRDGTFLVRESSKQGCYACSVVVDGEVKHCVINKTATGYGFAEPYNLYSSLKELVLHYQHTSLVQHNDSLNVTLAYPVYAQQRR
# method: Inhibition of PI3Kα efficacy assay (ADP-Glo kinase assay)
# Type: biochemical
# test_conditions: Table 4; read-out: PI3Kα inhibitory activity (IC50)

molecule | target_under_test | IC50
COc1ncc(-c2ccc3ncnc(N4CCN(C(=O)/C=C/C(F)(F)F)CC4)c3n2)cc1NS(=O)(=O)c1c(F)cccc1F | PI3Kα (Homo sapiens (Human), UniProt P42336) | 1 nM
COc1ncc(-c2ccc3ncnc(N4CC5CCC(C4)N5C(=O)/C=C/C(C)=O)c3c2)cc1NS(=O)(=O)c1c(F)cccc1F | PI3Kα (Homo sapiens (Human), UniProt P42336) | 0.44 nM
C=C(F)C(=O)N1CCN(c2ncnc3ccc(-c4cnc(OC)c(NS(=O)(=O)c5c(F)cccc5F)c4)nc23)CC1 | PI3Kα (Homo sapiens (Human), UniProt P42336) | 1.7 nM
COc1ncc(-c2ccc3ncnc(C4CCN(C(=O)/C=C/C(C)=O)CC4)c3n2)cc1NS(=O)(=O)c1sc(C)nc1C | PI3Kα (Homo sapiens (Human), UniProt P42336) | 2.6 nM
COc1ncc(-c2ccc3ncnc(N4CCN(C(=O)/C=C/C(C)=O)CC4)c3c2)cc1NS(=O)(=O)c1ccc(F)c2ccccc12 | PI3Kα (Homo sapiens (Human), UniProt P42336) | 4.6 nM
COc1ncc(-c2ccc3ncnc(N4CCN(C(=O)/C=C/C(C)=O)CC4)c3n2)cc1NS(=O)(=O)c1c(F)cc(F)cc1F | PI3Kα (Homo sapiens (Human), UniProt P42336) | 0.91 nM
C=CC(=O)N1CCC(Nc2ncnc3ccc(-c4cnc(OC)c(NS(=O)(=O)c5ccc(F)cc5F)c4)cc23)C1 (stereo not shown) | PI3Kα (Homo sapiens (Human), UniProt P42336) | 1.6 nM

----------
# target_under_test: PI3Kα (Homo sapiens (Human), UniProt P42336)
# method: Inhibition of PI3Kα efficacy assay (ADP-Glo kinase assay)
# Format: biochemical
# test_conditions: Table 4; read-out: PI3Kα inhibitory activity (IC50)
pIC50: −log10 of the molar value.
measured_parameter: pIC50

compound | val
[2H]C([2H])([2H])n1cc(-c2ccc3ncnc(N4CCN(C(=O)/C=C/C(C)=O)CC4)c3c2)cc(NS(=O)(=O)c2ccc(F)cc2F)c1=O | 6.57
COc1ncc(-c2ccc3ncnc(N4CCC5(CC4)CN(C(=O)/C=C/C(C)=O)C5)c3c2)cc1NS(=O)(=O)c1sc(C)nc1C | 7.69
COc1ncc(-c2cc(C(F)(F)F)c3ncnc(N4CCN(C(=O)/C=C/C(C)=O)CC4)c3c2)cc1NS(=O)(=O)c1ccc(F)cc1F | 6.08
COc1ncc(-c2ccc3ncnc(N4CC5CCC(C4)N5C(=O)/C=C/C(C)=O)c3c2)cc1NS(=O)(=O)c1c(F)cc(F)cc1F | 9.52
COc1ncc(-c2ccc3ncnc(N4CCC5(CC4)CN(C(=O)/C=C/C(C)=O)C5)c3c2)cc1NS(=O)(=O)c1ccccc1F | 9.96
COc1ccc(S(=O)(=O)Nc2cc(-c3ccc4ncnc(N5CCN(C(=O)/C=C/C(C)=O)CC5)c4c3)cnc2OC)c(F)c1 | 8.80
